Target: GST-Nv-NF-kB (Cys allele) (Nematostella vectensis, UniProt E5G601 2-411)
Sequence: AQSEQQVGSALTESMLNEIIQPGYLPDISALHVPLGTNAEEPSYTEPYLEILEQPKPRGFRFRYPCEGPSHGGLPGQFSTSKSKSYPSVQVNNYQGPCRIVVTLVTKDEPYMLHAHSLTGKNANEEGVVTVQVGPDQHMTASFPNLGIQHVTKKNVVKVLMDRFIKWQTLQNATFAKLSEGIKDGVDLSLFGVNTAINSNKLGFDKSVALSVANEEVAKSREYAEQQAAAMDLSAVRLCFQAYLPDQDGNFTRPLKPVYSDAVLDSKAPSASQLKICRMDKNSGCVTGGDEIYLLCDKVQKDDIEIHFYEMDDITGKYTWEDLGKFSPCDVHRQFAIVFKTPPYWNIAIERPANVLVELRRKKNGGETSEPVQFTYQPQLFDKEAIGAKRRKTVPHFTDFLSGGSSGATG
Assay: protein-binding microarray (PBM); PBM: ~300 nM protein, 6 mM HEPES pH 7.8, 80 mM KCl, 0.5 mM EDTA, 0.5 mM EGTA, 6% glycerol, 35 ng/ul poly-dIdC, 1% milk, 1 h, room temperature; high values mean tight binding
Conditions: dsDNA, one strand shown
Classify by measured binding signal: 1.0 if it is equal to or exceeds 5 z-score, 0.0 if it is smaller.

[ask] Determine whether measured binding signal meets or exceeds 5 z-score for CCGATTAACATCAGGGTATACCCTGATGTTAATCGGGTCTTGATTCGCTTGACGCTGCTG
[reply] 0.0

[ask] Has CCGATTAACATCAGGAAGCCCCCTGATGTTAATCGGGTCTTGATTCGCTTGACGCTGCTG a recorded binding signal greater than or equal to 5 z-score?
[reply] 1.0

[ask] Decide: is the reported value of binding signal for CCGATTAACATCAGATTTCCCCCTGATGTTAATCGGGTCTTGATTCGCTTGACGCTGCTG equal to or greater than 5 z-score?
[reply] 1.0

[ask] Hi, just wondering whether CCGATTAACATCACATTTCCCCATGATGTTAATCGGGTCTTGATTCGCTTGACGCTGCTG shows binding signal of 5 z-score or higher.
[reply] 1.0

[ask] Entry CCGATTAACATCACACCCCCCCCTGATGTTAATCGGGTCTTGATTCGCTTGACGCTGCTG : is its binding signal no less than 5 z-score?
[reply] 0.0

[ask] Identify whether the reported binding signal of the following sequence is 5 z-score or greater: CCGATTAACATCAGGAGTACCCCTGATGTTAATCGGGTCTTGATTCGCTTGACGCTGCTG
[reply] 0.0

[ask] API: above_or_equal(metric=binding signal, cutoff=5 z-score) for item CCGATTAACATCAAGGAATACCCTGATGTTAATCGGGTCTTGATTCGCTTGACGCTGCTG
[reply] 1.0

[ask] Evaluate CCGATTAACATCAGGGCATCCCCTGATGTTAATCGGGTCTTGATTCGCTTGACGCTGCTG : binding signal at minimum 5 z-score?
[reply] 1.0

[ask] Please tell me: is the sequence CCGATTAACATCAGGGGAATTCATGATGTTAATCGGGTCTTGATTCGCTTGACGCTGCTG at or over 5 z-score in terms of binding signal?
[reply] 1.0

[ask] Check if binding signal >= 5 z-score (inclusive). Item: CCGATTAACATCAAATATTCCCTTGATGTTAATCGGGTCTTGATTCGCTTGACGCTGCTG
[reply] 1.0

[ask] Is binding signal for CCGATTAACATCAGAAAATTCCCTGATGTTAATCGGGTCTTGATTCGCTTGACGCTGCTG at or above 5 z-score?
[reply] 1.0

[ask] Has CCGATTAACATCAAAATTCCCGCTGATGTTAATCGGGTCTTGATTCGCTTGACGCTGCTG a recorded binding signal greater than or equal to 5 z-score?
[reply] 1.0

[ask] Given the entry CCGATTAACATCAAAAATCCCTATGATGTTAATCGGGTCTTGATTCGCTTGACGCTGCTG , answer whether its binding signal meets or surpasses 5 z-score.
[reply] 1.0

[ask] Please check the record CCGATTAACATCATTTCCCAAAATGATGTTAATCGGGTCTTGATTCGCTTGACGCTGCTG and state if its binding signal is at or above 5 z-score.
[reply] 0.0

[ask] Is reported binding signal greater than or equal to 5 z-score here: CCGATTAACATCAGGCTTTTCCCTGATGTTAATCGGGTCTTGATTCGCTTGACGCTGCTG
[reply] 0.0

[ask] Determine whether measured binding signal meets or exceeds 5 z-score for CCGATTAACATCAAAACAGTCCCTGATGTTAATCGGGTCTTGATTCGCTTGACGCTGCTG
[reply] 1.0

[ask] Is it the case that CCGATTAACATCAGGCCGTCCCCTGATGTTAATCGGGTCTTGATTCGCTTGACGCTGCTG has binding signal reaching or exceeding 5 z-score?
[reply] 0.0

[ask] Could you please find out whether CCGATTAACATCAAAAACCCCCTTGATGTTAATCGGGTCTTGATTCGCTTGACGCTGCTG has binding signal that meets 5 z-score or exceeds it?
[reply] 1.0

[ask] # check: binding signal of CCGATTAACATCAGAAAATACCCTGATGTTAATCGGGTCTTGATTCGCTTGACGCTGCTG is greater than or equal to 5 z-score
[reply] 1.0

[ask] Does the reported binding signal for CCGATTAACATCAAGGGGGAGATTGATGTTAATCGGGTCTTGATTCGCTTGACGCTGCTG fall at or above the 5 z-score mark?
[reply] 1.0

[ask] I'd appreciate it if you could say whether CCGATTAACATCAGGGGGGGGTATGATGTTAATCGGGTCTTGATTCGCTTGACGCTGCTG has binding signal at least equal to 5 z-score.
[reply] 0.0

[ask] Is the recorded value of binding signal equal to or greater than 5 z-score for this sequence? CCGATTAACATCACCTTCCCCCCTGATGTTAATCGGGTCTTGATTCGCTTGACGCTGCTG
[reply] 0.0

[ask] Textbook exercise: given the entry CCGATTAACATCAGGGAAGCCCCTGATGTTAATCGGGTCTTGATTCGCTTGACGCTGCTG , state whether its binding signal is greater than or equal to 5 z-score.
[reply] 1.0

[ask] API: above_or_equal(metric=binding signal, cutoff=5 z-score) for item CCGATTAACATCAGGGCAGTACCTGATGTTAATCGGGTCTTGATTCGCTTGACGCTGCTG
[reply] 0.0

[ask] Tell me whether binding signal is at least 5 z-score here: CCGATTAACATCAGGGAATTTGATGATGTTAATCGGGTCTTGATTCGCTTGACGCTGCTG
[reply] 0.0

[ask] Quick check: does CCGATTAACATCACTGGGAAAACTGATGTTAATCGGGTCTTGATTCGCTTGACGCTGCTG have binding signal greater than or equal to 5 z-score?
[reply] 0.0

[ask] Tell me whether binding signal is at least 5 z-score here: CCGATTAACATCAGGGACTCCCCTGATGTTAATCGGGTCTTGATTCGCTTGACGCTGCTG
[reply] 1.0

[ask] Does the reported binding signal for CCGATTAACATCAACTATCCCCCTGATGTTAATCGGGTCTTGATTCGCTTGACGCTGCTG fall at or above the 5 z-score mark?
[reply] 0.0

[ask] // inclusive: binding signal at least 5 z-score? input: CCGATTAACATCAGGATTGTCCCTGATGTTAATCGGGTCTTGATTCGCTTGACGCTGCTG
[reply] 0.0

[ask] Hi team, for CCGATTAACATCAAAAAAATCCCTGATGTTAATCGGGTCTTGATTCGCTTGACGCTGCTG , is the recorded binding signal at or above 5 z-score?
[reply] 1.0

[ask] Assess whether reported binding signal for CCGATTAACATCAATTTTTTCCCTGATGTTAATCGGGTCTTGATTCGCTTGACGCTGCTG sits at 5 z-score or higher.
[reply] 1.0

[ask] Could you please find out whether CCGATTAACATCATGAATTCCCATGATGTTAATCGGGTCTTGATTCGCTTGACGCTGCTG has binding signal that meets 5 z-score or exceeds it?
[reply] 0.0

[ask] Test whether the sequence CCGATTAACATCAAAACTTCCCCTGATGTTAATCGGGTCTTGATTCGCTTGACGCTGCTG records binding signal of 5 z-score or higher.
[reply] 1.0

[ask] Decide: is the reported value of binding signal for CCGATTAACATCACTCCCTAAAATGATGTTAATCGGGTCTTGATTCGCTTGACGCTGCTG equal to or greater than 5 z-score?
[reply] 0.0

---

Target: GST-Dm-Relish (Drosophila melanogaster, UniProt Q94527 99-473)
Sequence: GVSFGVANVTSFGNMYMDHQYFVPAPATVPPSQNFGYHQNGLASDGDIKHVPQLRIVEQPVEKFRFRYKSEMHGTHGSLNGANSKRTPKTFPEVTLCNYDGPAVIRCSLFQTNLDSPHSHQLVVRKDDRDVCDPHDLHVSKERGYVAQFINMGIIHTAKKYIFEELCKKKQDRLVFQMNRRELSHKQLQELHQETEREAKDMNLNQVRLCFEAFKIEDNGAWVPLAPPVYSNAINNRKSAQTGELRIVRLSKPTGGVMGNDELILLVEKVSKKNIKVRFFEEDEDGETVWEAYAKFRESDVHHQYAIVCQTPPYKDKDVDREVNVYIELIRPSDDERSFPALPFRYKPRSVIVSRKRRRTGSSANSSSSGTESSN
Assay: protein-binding microarray (PBM); PBM: ~300 nM protein, 6 mM HEPES pH 7.8, 80 mM KCl, 0.5 mM EDTA, 0.5 mM EGTA, 6% glycerol, 35 ng/ul poly-dIdC, 1% milk, 1 h, room temperature; Ap Aiptasia and Nv Nematostella (sea anemones) / Co Capsaspora / Aq Amphimedon (sponge) / Dm Drosophila / Hu human; RHD is the Rel homology domain; high values mean tight binding
Conditions: dsDNA, one strand shown
Kindly state binding signal for each of the entries shown.
Report the figure in z-score without appending any unit label.

Looking up CCGATTAACATCAATCTCCCCCATGATGTTAATCGGGTCTTGATTCGCTTGACGCTGCTG , I see its binding signal listed as 2.05

Data point: CCGATTAACATCAGGACGCCCCCTGATGTTAATCGGGTCTTGATTCGCTTGACGCTGCTG ; binding signal = 3.85

Value of binding signal reported for the sequence CCGATTAACATCACAAAAAATTTTGATGTTAATCGGGTCTTGATTCGCTTGACGCTGCTG is 2.12

Input CCGATTAACATCACCGGGGATAGTGATGTTAATCGGGTCTTGATTCGCTTGACGCTGCTG . Output binding signal: 2.1

Kindly note the recorded binding signal for CCGATTAACATCAGGGAAAATAATGATGTTAATCGGGTCTTGATTCGCTTGACGCTGCTG , which is 2.1

# sequence CCGATTAACATCAGGGATTTACCTGATGTTAATCGGGTCTTGATTCGCTTGACGCTGCTG ; its binding signal = 9.23

The measured binding signal associated with CCGATTAACATCAGGGAAAACACTGATGTTAATCGGGTCTTGATTCGCTTGACGCTGCTG reads 5.1

Noted for CCGATTAACATCAGGGGGTGATATGATGTTAATCGGGTCTTGATTCGCTTGACGCTGCTG : its binding signal reads 2.63

Data point: CCGATTAACATCAGGATCCCCCCTGATGTTAATCGGGTCTTGATTCGCTTGACGCTGCTG ; binding signal = 8.78
